Tested on: Salmonella typhimurium
Procedure Summary: Antibacterial activity against Salmonella typhimurium TISTR 292 by 2-fold serial dilution method
Format: functional, Salmonella enterica subsp. enterica serovar Typhimurium
Experimental Parameters: Salmonella enterica
Below: a set of entries, each annotated with reported MIC.
Answer with the value and then the unit.

Here are 5 molecules together with their reported answers.
>>> assay_value("COc1c(O)cc2oc3cc(O)cc(O)c3c(=O)c2c1C/C=C(\\C)CCC=C(C)C [RUBRAXANTHONE]")
"64 µg/mL"
>>> assay_value("COc1c(O)c(CC=C(C)C)c2oc3cc(O)c(CC=C(C)C)c(O)c3c(=O)c2c1CC=C(C)C")
"128 µg/mL"
>>> assay_value("CC(C)=CCC/C(C)=C\\CC1(C/C=C(\\C)CCC=C(C)C)C(=O)C(O)=Cc2oc3cc(O)cc(O)c3c(=O)c21 (stereo not given)")
"64 µg/mL"
>>> assay_value("COc1cc2c(=O)c3c(O)c(C/C=C(\\C)CCC=C(C)C)c(O)cc3oc2cc1O [COWAXANTHONE]")
"128 µg/mL"
>>> assay_value("CC(C)=CCC/C(C)=C/CC1(CC=C(C)C)C(=O)C(O)=Cc2oc3cc(O)cc(O)c3c(=O)c21 (stereo not given) [GARCINIANONE A]")
"64 µg/mL"

// query Recorded MIC of COc1cc2oc3cc(O)c4c(c3c(=O)c2c(O)c1CC=C(C)C)CCC(C)(C)O4 , please.
// result 128 µg/mL

// query Follow-up item: COc1cc2oc3cc4c(c(O)c3c(=O)c2c(CC=C(C)C)c1O)C=CC(C)(C)O4
// result 128 µg/mL

// query Repeat for the following molecule: CC(C)=CCCC1(C)C=Cc2c(c(O)cc3oc4cc5c(c(O)c4c(=O)c23)C=CC(C)(C)O5)O1 (stereo not given)
// result 64 µg/mL

// query What about this molecule? COc1c(O)cc2oc3cc(O)c(CC=C(C)C)c(O)c3c(=O)c2c1CC=C(C)C [MANGOSTIN]
// result 64 µg/mL

// query Record: COc1c(O)cc2oc3cc4c(c(O)c3c(=O)c2c1CC=C(C)C)C=CC(C)(C)O4 [MANGOSTANIN]
// result 128 µg/mL

// query Cool, now COc1cc2oc3cc4c(c(O)c3c(=O)c2c(CC=C(C)C)c1OC)C=CC(C)(C)O4
// result 64 µg/mL
